Where do these numbers come from? They come from ChEMBL document CHEMBL2073762.

# TESTED TARGET: ATP-binding cassette sub-family C member 2 (ABCC2/Mrp2) (Rattus norvegicus, UniProt Q63120)
# Sequence (Q63120 whole entry): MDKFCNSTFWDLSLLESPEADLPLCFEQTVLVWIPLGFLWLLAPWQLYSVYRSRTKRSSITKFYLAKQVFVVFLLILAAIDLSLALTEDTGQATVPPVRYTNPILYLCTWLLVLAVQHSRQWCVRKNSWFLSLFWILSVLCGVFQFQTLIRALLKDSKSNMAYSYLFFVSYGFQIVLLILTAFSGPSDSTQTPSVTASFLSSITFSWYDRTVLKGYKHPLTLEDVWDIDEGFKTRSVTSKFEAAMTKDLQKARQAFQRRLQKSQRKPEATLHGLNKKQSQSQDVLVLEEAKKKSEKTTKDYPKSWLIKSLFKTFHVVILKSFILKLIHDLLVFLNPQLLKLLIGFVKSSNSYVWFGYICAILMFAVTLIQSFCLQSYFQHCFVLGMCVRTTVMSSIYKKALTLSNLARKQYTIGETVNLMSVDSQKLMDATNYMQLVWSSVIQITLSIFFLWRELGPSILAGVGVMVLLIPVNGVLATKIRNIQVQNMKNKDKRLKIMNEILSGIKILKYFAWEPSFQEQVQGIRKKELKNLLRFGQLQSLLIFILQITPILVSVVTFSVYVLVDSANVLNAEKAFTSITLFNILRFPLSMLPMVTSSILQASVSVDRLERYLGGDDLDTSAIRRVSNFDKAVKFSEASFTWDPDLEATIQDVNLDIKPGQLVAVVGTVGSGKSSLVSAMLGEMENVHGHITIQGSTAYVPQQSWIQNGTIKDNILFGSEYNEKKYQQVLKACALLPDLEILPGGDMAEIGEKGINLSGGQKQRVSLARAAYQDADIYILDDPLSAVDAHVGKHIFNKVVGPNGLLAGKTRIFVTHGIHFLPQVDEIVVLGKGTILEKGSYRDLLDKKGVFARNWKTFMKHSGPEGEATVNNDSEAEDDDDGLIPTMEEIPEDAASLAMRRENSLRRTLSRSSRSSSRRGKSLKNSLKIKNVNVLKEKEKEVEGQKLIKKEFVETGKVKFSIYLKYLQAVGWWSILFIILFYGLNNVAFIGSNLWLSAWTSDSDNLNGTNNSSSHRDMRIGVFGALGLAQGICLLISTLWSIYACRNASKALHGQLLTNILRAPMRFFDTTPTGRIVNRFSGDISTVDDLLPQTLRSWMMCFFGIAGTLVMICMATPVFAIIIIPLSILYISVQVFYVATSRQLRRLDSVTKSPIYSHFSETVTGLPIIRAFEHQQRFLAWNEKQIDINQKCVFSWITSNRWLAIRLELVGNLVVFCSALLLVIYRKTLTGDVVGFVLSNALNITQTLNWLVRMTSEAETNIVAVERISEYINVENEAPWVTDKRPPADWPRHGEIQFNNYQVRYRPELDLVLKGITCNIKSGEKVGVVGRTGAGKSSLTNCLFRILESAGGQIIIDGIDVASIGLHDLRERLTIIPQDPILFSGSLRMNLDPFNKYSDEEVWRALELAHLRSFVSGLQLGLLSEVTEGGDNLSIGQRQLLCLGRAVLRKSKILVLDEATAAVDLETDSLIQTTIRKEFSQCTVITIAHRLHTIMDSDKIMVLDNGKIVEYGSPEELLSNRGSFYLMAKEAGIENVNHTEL
# ASSAY: TP_TRANSPORTER: inhibition of DNP-SG uptakee (DNP-SG: 1 uM, SPFX: 3000 uM) in bile canalicular membrane vesicles from EHBR rat
# Type: functional, cell membranes, Bile canalicular membrane vesicle
# Set-up: scale not given: the % may be the effect or the level left
# CONDITION PARAMETERS: probe DNP-SG (1 uM), read-out: Activity
RECORDED ENDPOINT: activity at 3000 µM
# do not omit the unit; it follows the number

## Input Identify activity at 3000 µM associated with the compound C[C@@H]1CN(c2c(F)c(N)c3c(=O)c(C(=O)O)cn(C4CC4)c3c2F)C[C@H](C)N1
## Output 60%
